- assayRemarks: Selectivity index, ratio of IC50 for African green monkey Vero cells to IC50 for D-sorbitol synchronized ring stage of chloroquine-resistant Plasmodium falciparum W2
- Assay type: toxicity
- cond: read-out: Ratio IC50
Kindly return criterion met if reported selectivity ratio is no lower than 900; return criterion not met if it is lower.

Answered examples (5):
1. O=C1c2cccc3c(Br)ccc(c23)C(=O)N1CCCCCCCCNc1ccnc2cc(Cl)ccc12; criterion not met
2. O=C1c2cccc3c(N4CCOCC4)ccc(c23)C(=O)N1CCCNc1ccnc2cc(Cl)ccc12; criterion met
3. O=C1c2cccc3c(N4CCN(CCO)CC4)ccc(c23)C(=O)N1CCNc1ccnc2cc(Cl)ccc12; criterion met
4. O=C1c2cccc3c(N4CCOCC4)ccc(c23)C(=O)N1CCNc1ccnc2cc(Cl)ccc12; criterion not met
5. O=C1c2cccc3c(N4CCCCC4)ccc(c23)C(=O)N1CCNc1ccnc2cc(Cl)ccc12; criterion not met

Threshold query (selectivity ratio >= 900) on O=C1c2cccc3cccc(c23)C(=O)N1CCCCCCCCNc1ccnc2cc(Cl)ccc12
criterion not met

Threshold query (selectivity ratio >= 900) on O=C1c2cccc3c(N4CCN(CCO)CC4)ccc(c23)C(=O)N1CCCCNc1ccnc2cc(Cl)ccc12
criterion met

Threshold query (selectivity ratio >= 900) on O=C1c2cccc3c(Br)ccc(c23)C(=O)N1CCCCCCNc1ccnc2cc(Cl)ccc12
criterion met

Threshold query (selectivity ratio >= 900) on O=C1c2cccc3c(Br)ccc(c23)C(=O)N1CCNc1ccnc2cc(Cl)ccc12
criterion not met
